target: mushroom tyrosinase; test: Tyrosinase inhibition assay (o-diphenolase activity, L-DOPA as substrate); format: biochemical; details: mushroom tyrosinase 30 units (28 nM), L-DOPA 0.5 mM, pH 6.8, absorbance at 475 nm, mean ± S.E.M., at least triplicates; read-out: IC50 ± SEM (in μM), tyrosinase inhibitory activity
Just so you know, the groups by IC50 go like this: bottom = under 7 µM, middle = from 7 µM up to 40 µM, top = 40 µM and over

For orientation, consider the following solved cases.
                                   compound        tested_target  class_label
0  C#CC1(O)CC(O)C2C3C(C)CC4=C(CCC(=O)C4)C3CCC21C (stereo not drawn) [Metabolite 2, 15β-Hydroxytibolone]  mushroom tyrosinase          top
1  C#CC1(O)CCC2C3C(C)C(O)C4=CC(=O)CCC4C3CCC21C (stereo not drawn) [Metabolite 7, 6β-Hydroxy-Δ^4-Tibolone]  mushroom tyrosinase       middle
2  C#CC1(O)CCC2C3C(C)C(OC)C4=CC(=O)CCC4C3CCC21C (stereo not drawn) [Metabolite 8, 6β-Methoxy-Δ^4-Tibolone]  mushroom tyrosinase       middle
3  C#CC1(O)CCC2C3C(C)CC4=CC(=O)CCC4(O)C3CCC21C (stereo not drawn) [Metabolite 4, 10β-Hydroxy-Δ^4-Tibolone]  mushroom tyrosinase          top
4  N[C@@H](Cn1ccc(=O)c(O)c1)C(=O)O [L-Mimosine, L-mimosine, reference compound]  mushroom tyrosinase       bottom

Task item: For the record C#CC1(O)CC(O)C2C3C(C)CC4=C(CCC(=O)C4)C3C(O)CC21C (stereo not drawn) [Metabolite 5, 11α,15β-Dihydroxytibolone] , report the class its IC50 corresponds to.
Reply: bottom

Task item: For the record C#CC1(O)CCC2C3C(CCC21C)C1=C(CC(=O)CC1)C(O)C3C (stereo not drawn) [Metabolite 1, 6β-Hydroxytibolone] , report the class its IC50 corresponds to.
Reply: middle

Task item: For the record C#CC1(O)CCC2C3C(C)CC4=CC(=O)CCC4C3CCC21C (stereo not drawn) [Metabolite 3, Δ^4-Tibolone] , report the class its IC50 corresponds to.
Reply: middle

Value source: patent US20090136434A1
